tested on: LOX IMVI melanoma; assay: NCI tumour cell line growth inhibition, 48 h
Please provide measured log10 TGI for the entries that follow.
In plain terms, each number is the log10 of measured TGI in µM.

>  <compound>
CSC(=S)OC1CC(n2cnc3c(NC(=O)c4ccccc4)ncnc32)OC1CO[Si](C)(C)C(C)(C)C (stereo not drawn)

>  <observed_property>
log10 TGI

>  <obs_value>
1.67

$$$$
>  <compound>
C=C(CO)[C@@H]1CC[C@]2(COC3CCCCO3)CC[C@]3(C)[C@H](CC[C@@H]4[C@@]5(C)C=C(C=O)C(=O)C(C)(C)[C@@H]5CC[C@]43C)[C@@H]12 (stereo partly drawn)

>  <observed_property>
log10 TGI

>  <obs_value>
-0.41

$$$$
>  <compound>
C=C1C(=O)OC2C3C(=C)[C@@H](OC(C)=O)CC3C(C)=CC(OC(=O)C(C)(OC(C)=O)C(C)OC(C)=O)[C@@H]12 (stereo partly drawn)

>  <observed_property>
log10 TGI

>  <obs_value>
1.44

$$$$
>  <compound>
Oc1c(Br)cc(/C=C/c2cccc(/C=C/c3cc(Br)c(O)c(Br)c3)n2)cc1Br

>  <observed_property>
log10 TGI

>  <obs_value>
1.46

$$$$
>  <compound>
O=C(Nc1cccc(-c2ccc(Cl)c(C(F)(F)F)c2)c1)C1CCN(Cc2cccc3cccnc23)CC1

>  <observed_property>
log10 TGI

>  <obs_value>
0.46

$$$$

Report log10 TGI for every entry below.
1. CSC1=NNC(SC)=NN1
2. CCCCCCCCCNC(=O)/C=C/c1ccc(O)c(O)c1
3. CC(CN(C)C)Oc1ccccc1NC1=C(Cl)C(=O)C(Nc2ccccc2OC(C)CN(C)C)=C(Cl)C1=O (stereo not drawn)
4. Cc1cn2c(/C=N/N=C(N)N)c(-c3ccccn3)nc2s1

1. -0.54
2. 1.46
3. -0.42
4. 1.66

====

test system: MDA-MB-435
observed_property: GI50

Report GI50 for every entry below.
1. CCN(CC)C(=S)SCN1C(=O)c2ccccc2S1(=O)=O
2. CC1(N)CCN(c2cnc(-c3cccc(Cl)c3Cl)c(N)n2)CC1
3. CCCN(CCC)c1ccc(/C=N/NC(=O)c2cccnc2)c(OC)c1
4. CO/N=C(\COc1ccc2oc(-c3ccccc3)cc(=O)c2c1)c1ccc(OC)cc1
5. Cc1ccc(NC(=O)CSc2nnc3n(Cc4ccccc4)c(=O)c4c(C)c(C(N)=O)sc4n23)cc1
6. CCOC(=O)c1cc(-c2ccccc2)[nH]c1N/N=C/c1ccc(Cl)cc1

1: 60.9 µM; 2: 28.3 µM; 3: 10.3 µM; 4: 15 µM; 5: > 100 µM; 6: > 100 µM

Report GI50 for every entry below.
1. Cc1cn2c(/C=N/N=C(N)N)c(-c3ccccn3)nc2s1
2. [N-]=[N+]=NCCCn1c2c(c3ccc([N+](=O)[O-])cc3c1=O)C(=O)c1cc(F)ccc1-2

1. 19 µM
2. 4.15 µM

====

Please provide measured TGI for the entries that follow.
tested on: LOX IMVI melanoma; assay: NCI tumour cell line growth inhibition, 48 h

Answered cases to consult:
>  <compound>
O=C(NO)[C@@H](Cc1ccccc1)NS(=O)(=O)c1ccc(-c2ccccc2)cc1

>  <tested_on>
LOX IMVI melanoma

>  <TGI>
> 25 µM

$$$$
>  <compound>
CC1=NN(c2nc(N)nc(C/C(N)=N/O)n2)C(C)(C)C1

>  <tested_on>
LOX IMVI melanoma

>  <TGI>
> 100 µM

$$$$
>  <compound>
Cc1ccc(NS(=O)(=O)c2cccc(C#N)c2)c2[nH]cc(C#N)c12

>  <tested_on>
LOX IMVI melanoma

>  <TGI>
> 100 µM

$$$$

Report TGI for every entry below.
1. CCOC(=O)C1=C(C)N(Cc2ccc(Cl)cc2Cl)C2(O)C=CC(=O)C3=C(O)c4ccccc4C(=O)C312 (stereo not given)
2. NC1=NN(c2ccccc2)C(=O)C1C(=O)C(=O)Nc1nccs1 (stereo not given)

1. 16.1 µM
2. > 100 µM
